- Test system: NCI-H522
- test_name: Antiproliferative activity against human NCI-H522 cells measured after 48 hrs by SRB assay
- Format: functional, cell-based
- condition_description: NCI-H522, 48 h
Kindly supply the reported pIC50 values for the records listed here.
Give bare numbers, as −log10 of the molar value.

Hi, could you look up pIC50 for each item in my list?
1. O=C(NCCCNc1cc(-c2cn(-c3ccccc3)nc2-c2cccc(O)c2)ccn1)Nc1cccc(C(F)(F)F)c1
2. O=C(NCCCNc1cc(-c2cn(-c3ccccc3)nc2-c2cccc(O)c2)ccn1)Nc1ccc(F)cc1
3. O=C(Nc1ccc(Cl)c(C(F)(F)F)c1)N1CCN(c2cc(-c3cn(-c4ccccc4)nc3-c3cccc(O)c3)ccn2)CC1
4. COc1cccc(-c2nn(-c3ccccc3)cc2-c2ccnc(NCCCNC(=O)Nc3ccc(F)cc3)c2)c1
5. O=C1c2ccccc2-c2n[nH]c3cccc1c23

Completion:
1: 5.29; 2: 5.39; 3: 5.56; 4: 5.29; 5: 4.91

###

- Tested on: SK-MEL-28
- test_name: Antiproliferative activity against human SK-MEL-28 cells measured after 48 hrs by SRB assay
- Assay type: functional, cell-based
- condition_description: SK-MEL-28, time 48 hrs
Kindly supply the reported TGI values for the records listed here.
Numbers only, in µM.

Field: example entries. Status: answers known.
chemical_structure	test_readout	result_units	readout_value
O=C(Nc1ccc(Cl)c(C(F)(F)F)c1)N1CCN(c2cc(-c3cn(-c4ccccc4)nc3-c3cccc(O)c3)ccn2)CC1	TGI	µM	10.3
O=C(NCCCNc1cc(-c2cn(-c3ccccc3)nc2-c2cccc(O)c2)ccn1)Nc1cccc(C(F)(F)F)c1	TGI	µM	7.51
COc1cccc(-c2nn(-c3ccccc3)cc2-c2ccnc(NCCCNC(=O)Nc3ccc(F)cc3)c2)c1	TGI	µM	15.5

Prompt: Assign TGI to the following record: O=C(NCCCNc1cc(-c2cn(-c3ccccc3)nc2-c2cccc(O)c2)ccn1)Nc1ccc(F)cc1
Completion: 5.64

###

- Tested on: SW-620
- test_name: Antiproliferative activity against human SW-620 cells measured after 48 hrs by SRB assay
- Format: functional, cell-based
- condition_description: SW-620, 48 h
test_readout: pIC50
One number for each entry, as −log10 of the molar value.

Field: example entries. Status: answers known.
chemical_structure	pIC50
O=C(Nc1ccc(Cl)c(C(F)(F)F)c1)N1CCN(c2cc(-c3cn(-c4ccccc4)nc3-c3cccc(O)c3)ccn2)CC1	5.32
O=C1c2ccccc2-c2n[nH]c3cccc1c23	4.96
O=C(NCCCNc1cc(-c2cn(-c3ccccc3)nc2-c2cccc(O)c2)ccn1)Nc1cccc(C(F)(F)F)c1	5.41
COc1cccc(-c2nn(-c3ccccc3)cc2-c2ccnc(NCCCNC(=O)Nc3ccc(F)cc3)c2)c1	5.10

Now, please, on to the next compound.
Prompt: Assign pIC50 to the following record: O=C(NCCCNc1cc(-c2cn(-c3ccccc3)nc2-c2cccc(O)c2)ccn1)Nc1ccc(F)cc1
Completion: 5.52

###

Kindly supply the reported IC50 values for the records listed here.
- measured_on: Mitogen-activated protein kinase 10 (Homo sapiens, UniProt P53779)
- Sequence (P53779 whole entry): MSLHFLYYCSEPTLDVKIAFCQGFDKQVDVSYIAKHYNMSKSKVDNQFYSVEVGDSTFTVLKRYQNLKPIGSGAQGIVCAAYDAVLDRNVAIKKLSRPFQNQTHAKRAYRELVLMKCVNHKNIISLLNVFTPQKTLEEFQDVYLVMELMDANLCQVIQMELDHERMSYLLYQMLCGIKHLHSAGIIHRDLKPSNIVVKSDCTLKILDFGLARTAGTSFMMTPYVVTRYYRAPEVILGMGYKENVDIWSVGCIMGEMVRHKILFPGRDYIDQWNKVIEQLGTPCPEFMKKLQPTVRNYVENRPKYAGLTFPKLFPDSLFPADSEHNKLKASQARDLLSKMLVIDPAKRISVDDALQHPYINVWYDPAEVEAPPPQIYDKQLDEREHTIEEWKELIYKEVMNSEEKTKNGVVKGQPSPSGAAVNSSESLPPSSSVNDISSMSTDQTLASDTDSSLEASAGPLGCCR
- test_name: Inhibition of JNK3 (unknown origin)

Field: example entries. Status: answers known.
chemical_structure	IC50
O=C(NCCCNc1cc(-c2cn(-c3ccccc3)nc2-c2cccc(O)c2)ccn1)Nc1ccc(F)cc1	0.0974 µM
O=C(Nc1cccc(C(F)(F)F)c1)N1CCN(c2cc(-c3cn(-c4ccccc4)nc3-c3cccc(O)c3)ccn2)CC1	> 1 µM
O=C(NCCCNc1cc(-c2cn(-c3ccccc3)nc2-c2cccc(O)c2)ccn1)Nc1ccc(Cl)c(Cl)c1	> 1 µM
O=C(NCCNc1cc(-c2cn(-c3ccccc3)nc2-c2cccc(O)c2)ccn1)Nc1cccc(C(F)(F)F)c1	0.099 µM
O=C(NCCNc1cc(-c2cn(-c3ccccc3)nc2-c2cccc(O)c2)ccn1)Nc1ccc(Cl)c(Cl)c1	0.526 µM
O=C(Nc1cc(C(F)(F)F)cc(C(F)(F)F)c1)N1CCN(c2cc(-c3cn(-c4ccccc4)nc3-c3cccc(O)c3)ccn2)CC1	> 1 µM
COc1cccc(-c2nn(-c3ccccc3)cc2-c2ccnc(N3CCN(C(=O)Nc4ccc(Cl)c(Cl)c4)CC3)c2)c1	> 1 µM
COc1cccc(-c2nn(-c3ccccc3)cc2-c2ccnc(NCCCNC(=O)Nc3ccc(F)cc3)c2)c1	> 1 µM
O=C(Nc1ccccc1)N1CCN(c2cc(-c3cn(-c4ccccc4)nc3-c3cccc(O)c3)ccn2)CC1	> 1 µM
O=C(NCCCNc1cc(-c2cn(-c3ccccc3)nc2-c2cccc(O)c2)ccn1)Nc1cccc(C(F)(F)F)c1	0.474 µM

Hi, could you look up IC50 for each item in my list?
1. O=C(NCCNc1cc(-c2cn(-c3ccccc3)nc2-c2cccc(O)c2)ccn1)Nc1ccc(F)cc1
2. O=C(Nc1ccc(F)cc1)N1CCN(c2cc(-c3cn(-c4ccccc4)nc3-c3cccc(O)c3)ccn2)CC1
3. O=C(Nc1ccc(Cl)c(Cl)c1)N1CCN(c2cc(-c3cn(-c4ccccc4)nc3-c3cccc(O)c3)ccn2)CC1

Completion:
1. 0.189 µM
2. > 1 µM
3. > 1 µM
